Target: Recombinant human deoxyuridine nucleotidohydrolase (dUTPase) (Homo sapiens)
Sequence (P33316 1-164 isoform P33316-2): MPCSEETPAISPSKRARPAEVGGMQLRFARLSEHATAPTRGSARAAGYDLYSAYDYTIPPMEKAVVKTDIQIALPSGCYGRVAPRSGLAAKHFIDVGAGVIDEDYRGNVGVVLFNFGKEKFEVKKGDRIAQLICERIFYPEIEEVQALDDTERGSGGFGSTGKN
Test: Fluorescence-based dUTPase inhibition assay (Example 19; 5 ng dUTPase, 8 min at 37° C.)
QUANTITY_NAME: IC50 (µM)

>>> measured_result("C[C@@H](NS(=O)(=O)CC/C=C/Cn1ccc(=O)[nH]c1=O)c1cccc(OCC2CC2)c1 [PCI 10216, reference compound]")
0.8
>>> measured_result("C[C@@H](NS(=O)(=O)CC/C=C/CC1CCC(=O)NC1=O)c1cccc(OCC2CC2)c1 (mixture of isomers)")
7.2
